These measurements were taken from patent US10118935B2.

The following compounds have recorded CC50 on RPMI-8226.

{"columns": ["structure", "CC50"],
 "data": [
  ["C=C1C(=O)O[C@H]2[C@H]1CC/C(COC(=O)CCC(=O)NCCCCCCCCCNC(=O)CCC(=O)OC/C1=C/CC[C@@]3(C)O[C@H]3[C@H]3OC(=O)C(=C)[C@@H]3CC1)=C\\CC[C@@]1(C)O[C@@H]21", "> 100 µM"]
]}

Switching to the query record.
Give the reported CC50 for `C=C1C(=O)O[C@H]2[C@H]1CC/C(COC(=O)CCC(=O)NCCCCCCCCNC(=O)CCC(=O)OC/C1=C/CC[C@@]3(C)O[C@H]3[C@H]3OC(=O)C(=C)[C@@H]3CC1)=C\CC[C@@]1(C)O[C@@H]21` (system: RPMI-8226).
> 100 µM

----------
Tested on: OVCAR-8
assay_explanation: NCI 60 cell line five dose, Ovarian Cancer
quantity_name: TGI (µM)
Please give a number only; it is taken to be in µM.

// solved cases for TGI follow
{"columns": ["structure", "observed_result"],
 "data": [
  ["C=C1C(=O)O[C@H]2[C@H]1CC/C(COC(=O)CCC(=O)NCCCCCCCCCNC(=O)CCC(=O)OC/C1=C/CC[C@@]3(C)O[C@H]3[C@H]3OC(=O)C(=C)[C@@H]3CC1)=C\\CC[C@@]1(C)O[C@@H]21", 16.5],
  ["C=C1C(=O)O[C@H]2[C@H]1CC/C(COC(=O)CCC(=O)NCCCCCCCCNC(=O)CCC(=O)OC/C1=C/CC[C@@]3(C)O[C@H]3[C@H]3OC(=O)C(=C)[C@@H]3CC1)=C\\CC[C@@]1(C)O[C@@H]21", 13.3],
  ["C=C1C(=O)O[C@H]2[C@H]1CC/C(COC(=O)NCCCCCNC(=O)OC/C1=C/CC[C@@]3(C)O[C@H]3[C@H]3OC(=O)C(=C)[C@@H]3CC1)=C\\CC[C@@]1(C)O[C@@H]21", 13.7]
]}

# next molecule below
What value of measured TGI is listed for `C=C1C(=O)O[C@H]2[C@H]1CC/C(COC(=O)NCCCCNC(=O)OC/C1=C/CC[C@@]3(C)O[C@H]3[C@H]3OC(=O)C(=C)[C@@H]3CC1)=C\CC[C@@]1(C)O[C@@H]21` ?
8.26

----------
This document collects CC50 values reported for OVCAR-3.
Could you give me the number in µM? Just the number is fine.

{"columns": ["compound", "CC50 [µM]"],
 "data": [
  ["C=C1C(=O)O[C@H]2[C@H]1CC/C(COC(=O)CCC(=O)NCCCCCCCCNC(=O)CCC(=O)OC/C1=C/CC[C@@]3(C)O[C@H]3[C@H]3OC(=O)C(=C)[C@@H]3CC1)=C\\CC[C@@]1(C)O[C@@H]21 [JVM 2-87]", 5.31]
]}

From here, focus on the item given below.
Return CC50 measured with OVCAR-3 given this compound: C=C1C(=O)O[C@H]2[C@H]1CC/C(COC(=O)CCC(=O)NCCCCCCCCCNC(=O)CCC(=O)OC/C1=C/CC[C@@]3(C)O[C@H]3[C@H]3OC(=O)C(=C)[C@@H]3CC1)=C\CC[C@@]1(C)O[C@@H]21 [JVM 2-92]
5.3

----------
Tested on: HOP-92
assay_explanation: NCI 60 cell line five dose, Non-Small Cell Lung Cancer
run_conditions: read-out: LC50
quantity_name: CC50 (µM)
Give the quantity in µM, number only.

CC50 lookup needed for C=C1C(=O)O[C@H]2[C@H]1CC/C(COC(=O)NCCCCCNC(=O)OC/C1=C/CC[C@@]3(C)O[C@H]3[C@H]3OC(=O)C(=C)[C@@H]3CC1)=C\CC[C@@]1(C)O[C@@H]21 [JVM 2-76] , thanks.
8.61

----------
System: HCT-15
assay_explanation: NCI 60 cell line five dose, Colon Cancer
run_conditions: read-out: LC50, molar
quantity_name: CC50 (µM)
Kindly answer with a numeric value in µM, unit omitted.

For HCT-15, provide CC50 of `C=C1C(=O)O[C@H]2[C@H]1CC/C(COC(=O)NCCCCCCCCNC(=O)OC/C1=C/CC[C@@]3(C)O[C@H]3[C@H]3OC(=O)C(=C)[C@@H]3CC1)=C\CC[C@@]1(C)O[C@@H]21` please.
4.16

----------
System: SW-620
assay_explanation: NCI 60 cell line five dose, Colon Cancer
run_conditions: read-out: LC50, molar
quantity_name: CC50 (µM)
Field: numeric (µM). Do not append units.

For the compound C=C1C(=O)O[C@H]2[C@H]1CC/C(COC(=O)NCCCCCCCCNC(=O)OC/C1=C/CC[C@@]3(C)O[C@H]3[C@H]3OC(=O)C(=C)[C@@H]3CC1)=C\CC[C@@]1(C)O[C@@H]21 [JVM 3-62] , what CC50 is on record?
3.37

----------
System: A498
assay_explanation: NCI 60 cell line five dose, Renal Cancer
run_conditions: read-out: LC50, molar
quantity_name: CC50 (µM)
# output: bare number, implied unit µM

Kindly state the measured CC50 obtained for C=C1C(=O)O[C@H]2[C@H]1CC/C(COC(=O)NCCCCCCCCNC(=O)OC/C1=C/CC[C@@]3(C)O[C@H]3[C@H]3OC(=O)C(=C)[C@@H]3CC1)=C\CC[C@@]1(C)O[C@@H]21 [JVM 3-62] with A498.
5.83

----------
Test system: SW-620
assay_explanation: NCI 60 cell line five dose, Colon Cancer
quantity_name: GI50

# lookup: GI50 of `C=C1C(=O)O[C@H]2[C@H]1CC/C(COC(=O)NCCCCCNC(=O)OC/C1=C/CC[C@@]3(C)O[C@H]3[C@H]3OC(=O)C(=C)[C@@H]3CC1)=C\CC[C@@]1(C)O[C@@H]21`
0.43 µM

----------
System: SK-MEL-2
assay_explanation: NCI 60 cell line five dose, Melanoma
run_conditions: read-out: LC50
Catalogue of CC50 values

{"columns": ["structure", "CC50"],
 "data": [
  ["C=C1C(=O)O[C@H]2[C@H]1CC/C(COC(=O)NCCCCNC(=O)OC/C1=C/CC[C@@]3(C)O[C@H]3[C@H]3OC(=O)C(=C)[C@@H]3CC1)=C\\CC[C@@]1(C)O[C@@H]21", "29.3 µM"]
]}

Here is the next item to consider.
Given `C=C1C(=O)O[C@H]2[C@H]1CC/C(COC(=O)NCCCCCNC(=O)OC/C1=C/CC[C@@]3(C)O[C@H]3[C@H]3OC(=O)C(=C)[C@@H]3CC1)=C\CC[C@@]1(C)O[C@@H]21` , state its recorded CC50.
7.81 µM

----------
System: SR
assay_explanation: NCI 60 cell line five dose, Leukemia
run_conditions: read-out: LC50
Reported CC50 is given for each of the following compounds.

{"columns": ["structure", "CC50"],
 "data": [
  ["C=C1C(=O)O[C@H]2[C@H]1CC/C(COC(=O)NCCCCCNC(=O)OC/C1=C/CC[C@@]3(C)O[C@H]3[C@H]3OC(=O)C(=C)[C@@H]3CC1)=C\\CC[C@@]1(C)O[C@@H]21", "> 100 µM"]
]}

Reported CC50 for SR, given `C=C1C(=O)O[C@H]2[C@H]1CC/C(COC(=O)NCCCCNC(=O)OC/C1=C/CC[C@@]3(C)O[C@H]3[C@H]3OC(=O)C(=C)[C@@H]3CC1)=C\CC[C@@]1(C)O[C@@H]21` ?
> 100 µM

----------
System: HT29
assay_explanation: NCI 60 cell line five dose, Colon Cancer
run_conditions: read-out: LC50
quantity_name: CC50 (µM)
Return type: number; implicit unit µM.

Please look up its CC50: `C=C1C(=O)O[C@H]2[C@H]1CC/C(COC(=O)NCCCCCNC(=O)OC/C1=C/CC[C@@]3(C)O[C@H]3[C@H]3OC(=O)C(=C)[C@@H]3CC1)=C\CC[C@@]1(C)O[C@@H]21`
4.85

----------
Test system: UACC-257
assay_explanation: NCI 60 cell line five dose, Melanoma
run_conditions: read-out: LC50
quantity_name: CC50 (µM)
The reply should contain only the number, in µM.

{"columns": ["structure", "CC50, µM"],
 "data": [
  ["C=C1C(=O)O[C@H]2[C@H]1CC/C(COC(=O)NCCCCNC(=O)OC/C1=C/CC[C@@]3(C)O[C@H]3[C@H]3OC(=O)C(=C)[C@@H]3CC1)=C\\CC[C@@]1(C)O[C@@H]21", 22.9]
]}

Next:
Quick check: CC50 of `C=C1C(=O)O[C@H]2[C@H]1CC/C(COC(=O)NCCCCCNC(=O)OC/C1=C/CC[C@@]3(C)O[C@H]3[C@H]3OC(=O)C(=C)[C@@H]3CC1)=C\CC[C@@]1(C)O[C@@H]21` ?
42.4

----------
Examples of compounds with documented CC50 follow.
Test system: A498
assay_explanation: NCI 60 cell line five dose, Renal Cancer
run_conditions: read-out: LC50
Answer format: numeric, µM implied, no suffix.

{"columns": ["compound", "system", "observed_result"],
 "data": [
  ["C=C1C(=O)O[C@H]2[C@H]1CC/C(COC(=O)NCCCCCNC(=O)OC/C1=C/CC[C@@]3(C)O[C@H]3[C@H]3OC(=O)C(=C)[C@@H]3CC1)=C\\CC[C@@]1(C)O[C@@H]21 [JVM 2-76]", "A498", 47.5]
]}

Would you kindly share the measured CC50 for C=C1C(=O)O[C@H]2[C@H]1CC/C(COC(=O)NCCCCNC(=O)OC/C1=C/CC[C@@]3(C)O[C@H]3[C@H]3OC(=O)C(=C)[C@@H]3CC1)=C\CC[C@@]1(C)O[C@@H]21 [JVM 3-54] ?
43.9
